test: Solubility of the compound in aqueous sodium carbonate; format: physicochemical
measure-name: solubility

> print(dat)
                  compound.structure.string  reported.measurement
1  O=C(O)CCCCC(=O)Oc1c(-c2ccc(O)c(O)c2)oc2ccccc2c1=O            > 50 mg/mL

# ---- query compound ----
So for O=C(O)CCCCC(=O)Oc1c(-c2ccc(O)cc2)oc2ccccc2c1=O , the logged solubility turned out to be > 50 mg/mL

====

assay: Aqueous solubility of the compound; format: physicochemical; details: water (aqueous)
measure-name: solubility

Recorded results for 3 molecules are shown here.
> print(dat)
                                   molecule  reported.measurement
1         O=c1c(O)c(-c2ccc(O)cc2)oc2ccccc12             < 1 mg/mL
2  O=c1c(OP(=O)([O-])[O-])c(-c2ccccc2)oc2ccccc12.[Na+].[Na+]           > 200 mg/mL
3  O=c1c(OP(=O)([O-])[O-])c(-c2ccc(O)cc2)oc2ccccc12.[Na+].[Na+]           > 200 mg/mL

So for O=c1c(O)c(-c2ccccc2)oc2ccccc12 [FLAVONOL] , the logged solubility turned out to be < 1 mg/mL
